# assay: melting temperature; fluorescence melt of hairpins on a sequencing array, two-state fit, raised by 9.35 °C to match UV melts
# protocol conditions: sodium 0.088 M
parameter: Tm (°C)

> print(dat)
                          sequence.record  parameter  quantity.unit  test.result
 1      GATCCTAAATAGGATC ((((((....))))))         Tm             °C         49.2
 2      GATCTGTTGCCAGATC ((((((....))))))         Tm             °C         50.5
 3  GGCTGGGGAAACTCGGCC (((.(.(....).).)))         Tm             °C         49.4
 4  GGCCCCACGAAAGTGGCC (((..(((....))))))         Tm             °C         44.7
 5  GCTCACGAAAGTGGCAGC ((((((....)))..)))         Tm             °C         44.6
 6  GTTGTCGAAAGACCCAAC ((((((....)))..)))         Tm             °C         26.6
 7  GTCAACCGAAAGGTCGAC (((.(((....))).)))         Tm             °C         50.9
 8      GATCATCGACATGATC ((((((....))))))         Tm             °C         44.8
 9        GATCCTAGAAGGATC ((((((...))))))         Tm             °C         53.4
10      GATCGTCAGAACGATC ((((((....))))))         Tm             °C         55.1
11  GTTTCGACGAAAGTCAAC (((..(((....))))))         Tm             °C         22.9

* * *

# assay: folding enthalpy; higher = less favourable; fluorescence melt of hairpins on a sequencing array, two-state fit
# protocol conditions: sodium 0.088 M
parameter: folding enthalpy (kcal/mol)

> print(dat)
                          sequence.record  test.result
 1  GTATGAGGAAACCCATAC (((((.(....).)))))        -30.3
 2  GACACTGGAAACAGTACC (..((((....))))..)          -13
 3      GATCCTCGCAAGGATC ((((((....))))))        -32.6
 4  GAAGCCGAAAGGCACTTC ((((((....)))..)))          -12
 5  GCTTGTGGAAACACAAGC (((((((....)))))))        -39.9
 6  GCGAGGTCGAAAGACCGC (((..(((....))))))        -9.59
 7  GCTAAGCGAAAGCATGGC ((.(.((....)).).))        -20.1
 8  GGAGTCGAAAGACATTCC ((((((....)))..)))        -12.7
 9  GAAAAAACGAAAGTTTTC (((..(((....))))))        -13.4
10  GCTAGCGGAAACGCTGGC ((.((((....)))).))        -33.3
11  GAGGTTGGAAACGATCTC (((.(.(....).).)))        -17.3
12          CAGCTGAAAAGCTG (((((....)))))        -25.4
13  GACGCAGGAAACTGCGCC (.(((((....))))).)        -13.5
14  GCTTAGCGAAAGCGACGC ((.(.((....)).).))        -18.2
15                GCGGACTCCGC ((((...))))        -20.5
16    GTCGCCCGAAAGGGGAC (((.(((....))))))        -21.4
17  GGGCGGTCGAAAGACCCC (((..(((....))))))        -15.3
18  GGTGTATCGAAAGATACC (((..(((....))))))        -14.7
19  GGTTGAGGAAACTTGACC (((..((....))..)))        -14.6
20  GCGAAGACGAAAGTCCGC (((..(((....))))))        -31.9
21      GATCAACACGTTGATC ((((((....))))))        -40.2
22  GGTGATGGAAACATCGCC ((.((((....)))).))        -45.2
23  GAAGCGACGAAAGTCTTC (((..(((....))))))        -9.61
24  GCAGCGACGAAAGTCTGC (((..(((....))))))        -16.1
25  GACTCTGCGAAAGCAGTC (((..(((....))))))        -7.87
26  GTCGCGACGAAAGTCGAC (((..(((....))))))        -8.29
27  GTCGTCGAAAGACTTGAC ((((((....)))..)))          -17
28    CGAGGCGGAAACGCTCG (((.(((....))))))        -20.5
29  GGCCGTGGAAACACGGTC (.(((((....))))).)        -24.3
30  GGGAGGGCGAAAGCCCCC (((..(((....))))))        -10.6
31  GGAGATGGAAACGTCTCC (((((.(....).)))))        -36.9
32  GTGATAGGAAACTATCAC (((((((....)))))))        -42.8
33  GGATTGGGAAACCAATTC (.(((((....))))).)          -28
34        GATCCCTGTGGGATC ((((((...))))))          -35
35        GATCAGCTCCTGATC ((((((...))))))        -43.2
36      GATCGTCGTAACGATC ((((((....))))))        -48.4
37      GATCGAATCTTCGATC ((((((....))))))        -42.4
38  GGCGACGGAAACACCGCC ((((..(....)..))))        -29.3
39              GCGTCCTGACGC ((((....))))        -35.1
40  GTATAGTCGAAAGACTAC (((..(((....))))))        -11.9
41  CGATTCGGAAACGATTCG (((.(((....))).)))        -33.2
42  GCGCTCGAAAGAGGCCGC ((((((....)))..)))        -16.5
